Entry source: patent US9328138B2

# test-target: HCV genotype 1b (BK) NS3 modified enzyme with a R155K mutation (Hepatitis C virus genotype 1b, UniProt P26663, R1181K)
# Construct: HCV genotype 1b (BK) NS3 modified enzyme
# protocol-text: HCV NS3 protease time-resolved fluorescence (TRF) assay, genotype 1b R155K
# Format: biochemical
# condition-label: Ki 1b R155K, genotype 1b (BK) NS3 R155K; single value
pKi: −log10 of the molar value.
measured-quantity: pKi

- smiles-text: "C=C[C@@H]1C[C@]1(NC(=O)[C@@H]1C[C@@H]2CN1C(=O)[C@H](C1CCCC1)NC(=O)O[C@@H]1CCC[C@H]1CC/C=C/Cc1c(nc3ccccc3c1OCCC(C)(C)O)O2)C(=O)NS(=O)(=O)C1(C)CC1"
  reported: 9.80
- smiles-text: "C=C[C@@H]1C[C@]1(NC(=O)[C@@H]1C[C@@H]2CN1C(=O)[C@H](C(C)(C)C)NC(=O)O[C@@H]1C[C@H]1CCCCCc1c(nc3c(OC)cccc3c1OCCN1CCOCC1)O2)C(=O)NS(=O)(=O)C1(C)CC1"
  reported: 9.96
- smiles-text: "C=C[C@@H]1C[C@]1(NC(=O)[C@@H]1C[C@@H]2CN1C(=O)[C@H](C(C)(C)C)NC(=O)O[C@@H]1CCC[C@H]1CCCCCc1c(nc3ccccc3c1OCCN1CCOCC1)O2)C(=O)NS(=O)(=O)C1(COC)CC1"
  reported: 9.15
- smiles-text: "C=C[C@@H]1C[C@]1(NC(=O)[C@@H]1C[C@@H]2CN1C(=O)[C@H](C(C)(C)C)NC(=O)O[C@@H]1CCC[C@H]1CC/C=C/Cc1c(nc3ccccc3c1OC)O2)C(=O)NS(=O)(=O)C1CC1"
  reported: 10.00
- smiles-text: "C=C[C@@H]1C[C@]1(NC(=O)[C@@H]1C[C@@H]2CN1C(=O)[C@H](C1CCCC1)NC(=O)O[C@@H]1CCC[C@H]1CC/C=C/Cc1c(nc3cc(Cl)ccc3c1OC)O2)C(=O)NS(=O)(=O)C1CC1"
  reported: 9.85
- smiles-text: "C=C[C@@H]1C[C@]1(NC(=O)[C@@H]1C[C@@H]2CN1C(=O)[C@H](C(C)(C)C)NC(=O)O[C@@H]1C[C@H]1CCCCCc1c(nc3ccccc3c1OC[C@@H]1CCN(C(=O)OC(C)(C)C)C1)O2)C(=O)NS(=O)(=O)C1(C)CC1"
  reported: 9.20
- smiles-text: "C=C[C@@H]1C[C@]1(NC(=O)[C@@H]1C[C@@H]2CN1C(=O)[C@H](C1CCCC1)NC(=O)O[C@@H]1CCC[C@H]1CC/C=C/Cc1c(nc3ccccc3c1OC(=O)NC(C)C)O2)C(=O)NS(=O)(=O)C1CC1"
  reported: 9.59
- smiles-text: "C=C[C@@H]1C[C@]1(NC(=O)[C@@H]1C[C@@H]2CN1C(=O)[C@H](C(C)(C)C)NC(=O)O[C@@H]1CCC[C@H]1CCCCCc1c(nc3ccccc3c1OCCN1CCCC1)O2)C(=O)NS(=O)(=O)C1(COC)CC1"
  reported: 9.68
- smiles-text: "C=C[C@@H]1C[C@]1(NC(=O)[C@@H]1C[C@@H]2CN1C(=O)[C@H](C1CCCC1)NC(=O)O[C@@H]1CCC[C@H]1CC/C=C/Cc1c(nc3ccccc3c1OC(=O)CC(C)C)O2)C(=O)NS(=O)(=O)C1CC1"
  reported: 8.18

* * *

# test-target: HCV NS3 protease genotype 3a (3A-1) (Hepatitis C virus genotype 3a, UniProt Q81258)
# protocol-text: HCV NS3 protease time-resolved fluorescence (TRF) assay, genotype 3a
# Type: biochemical
# condition-label: Ki 3a
We begin with a simple list: items and their reported Ki.
measured-quantity: Ki (nM)

- compound: "C=C[C@@H]1C[C@]1(NC(=O)[C@@H]1C[C@@H]2CN1C(=O)[C@H](C1CCCC1)NC(=O)O[C@@H]1CCC[C@H]1CC/C=C/Cc1c(nc3ccccc3c1OCCCOCCOC)O2)C(=O)NS(=O)(=O)C1CC1"
  quantity-unit: "nM"
  reported: 2.9
- compound: "C=C[C@@H]1C[C@]1(NC(=O)[C@@H]1C[C@@H]2CN1C(=O)[C@H](C(C)(C)C)NC(=O)O[C@@H]1C[C@H]1CCCCCc1c(nc3ccccc3c1OCCCNC(C)COC)O2)C(=O)NS(=O)(=O)C1(C)CC1 (stereo partly shown)"
  quantity-unit: "nM"
  reported: 0.58
- compound: "C=C[C@@H]1C[C@]1(NC(=O)[C@@H]1C[C@@H]2CN1C(=O)[C@H](C(C)(C)C)NC(=O)O[C@@H]1C[C@H]1CCCCCc1c(nc3ccccc3c1OCC1CN(C)CCN1C)O2)C(=O)NS(=O)(=O)C1(C)CC1 (stereo partly shown)"
  quantity-unit: "nM"
  reported: 3
- compound: "C=C[C@@H]1C[C@]1(NC(=O)[C@@H]1C[C@@H]2CN1C(=O)[C@H](C(C)(C)C)NC(=O)O[C@@H]1C[C@H]1CCCCCc1c(nc3cc(C)ccc3c1OCCCN1CCCC1)O2)C(=O)NS(=O)(=O)C1(C)CC1"
  quantity-unit: "nM"
  reported: 0.68

* * *

# test-target: HCV genotype 1b (BK) NS3 modified enzyme with a R155K mutation (Hepatitis C virus genotype 1b, UniProt P26663, R1181K)
# Construct: HCV genotype 1b (BK) NS3 modified enzyme
# protocol-text: HCV NS3 protease time-resolved fluorescence (TRF) assay, genotype 1b R155K
# Format: biochemical
# condition-label: Ki 1b R155K, first of two values printed in the cell (not explained)

- compound: "C=C[C@@H]1C[C@]1(NC(=O)[C@@H]1C[C@@H]2CN1C(=O)[C@H](C(C)(C)C)NC(=O)O[C@@H]1C[C@H]1CCCCCc1c(nc3ccccc3c1OC1CCN(CC(F)(F)F)CC1)O2)C(=O)NS(=O)(=O)C1(C)CC1"
  quantity-unit: "nM"
  Ki: 0.08
- compound: "C=C[C@@H]1CC1(NC(=O)[C@@H]1C[C@@H]2CN1C(=O)[C@H](C(C)(C)C)NC(=O)O[C@@H]1C[C@H]1CCCCCc1c(nc3ccccc3c1OC1C3COCC1CN(CCOC)C3)O2)C(=O)NS(=O)(=O)C1(C)CC1 (some centres unmarked)"
  quantity-unit: "nM"
  Ki: 0.032
- compound: "C=C[C@@H]1C[C@]1(NC(=O)[C@@H]1C[C@@H]2CN1C(=O)[C@H](C1CCCCC1)NC(=O)O[C@@H]1C[C@H]1CCCCCc1c(nc3ccccc3c1OC1CCN(CCS(C)(=O)=O)CC1)O2)C(=O)NS(=O)(=O)C1(C)CC1"
  quantity-unit: "nM"
  Ki: 0.023
- compound: "C=C[C@@H]1C[C@]1(NC(=O)[C@@H]1C[C@@H]2CN1C(=O)[C@H](C1CCCCC1)NC(=O)O[C@@H]1C[C@H]1CCCCCc1c(nc3ccccc3c1OC1CCN(C(=O)OC(C)(C)C)CC1)O2)C(=O)NS(=O)(=O)C1(C)CC1"
  quantity-unit: "nM"
  Ki: 0.53
- compound: "C=C[C@@H]1CC1(NC(=O)[C@@H]1C[C@@H]2CN1C(=O)[C@H](C1CCCCC1)NC(=O)O[C@@H]1C[C@H]1CCCCCc1c(nc3ccccc3c1OC1CCNCC1F)O2)C(=O)NS(=O)(=O)C1(C)CC1 (stereo in doubt)"
  quantity-unit: "nM"
  Ki: 0.029
- compound: "C=C[C@@H]1C[C@]1(NC(=O)[C@@H]1C[C@@H]2CN1C(=O)[C@H](C(C)(C)C)NC(=O)O[C@@H]1C[C@H]1CCCCCc1c(nc3ccccc3c1OC1C3COCC1CN(CCOC)C3)O2)C(=O)NS(=O)(=O)C1(C)CC1 (some centres unmarked)"
  quantity-unit: "nM"
  Ki: 0.026
- compound: "C=C[C@@H]1CC1(NC(=O)[C@@H]1C[C@@H]2CN1C(=O)[C@H](C1CCCCC1)NC(=O)O[C@@H]1C[C@H]1CCCCCc1c(nc3ccccc3c1OC1CCN(CCOC(F)(F)F)CC1)O2)C(=O)NS(=O)(=O)C1(C)CC1 (some centres unmarked)"
  quantity-unit: "nM"
  Ki: 0.018
- compound: "C=C[C@@H]1C[C@]1(NC(=O)[C@@H]1C[C@@H]2CN1C(=O)[C@H](C1(C)CCCCC1)NC(=O)O[C@@H]1C[C@H]1CCCCCc1c(nc3ccccc3c1OCCCN1CCCOCC1)O2)C(=O)NS(=O)(=O)C1(C)CC1"
  quantity-unit: "nM"
  Ki: 0.021

* * *

# test-target: HCV genotype 1b (BK) NS3 modified enzyme with a R155K mutation (Hepatitis C virus genotype 1b, UniProt P26663, R1181K)
# Construct: HCV genotype 1b (BK) NS3 modified enzyme
# protocol-text: HCV NS3 protease time-resolved fluorescence (TRF) assay, genotype 1b R155K
# Format: biochemical
# condition-label: Ki 1b R155K, first of two values printed in the cell (not explained)
measured-quantity: Ki (pM)

- compound: "C=C[C@@H]1C[C@]1(NC(=O)[C@@H]1C[C@@H]2CN1C(=O)[C@H](C(C)(C)C)NC(=O)O[C@@H]1C[C@H]1CCCCCc1c(nc3ccccc3c1OC1CC3CCC(C1)N3CCOC)O2)C(=O)NS(=O)(=O)C1(C)CC1 (single isomer, unassigned) [Example 280]"
  measured-quantity: "Ki"
  reported: 24
- compound: "C=C[C@@H]1C[C@]1(NC(=O)[C@@H]1C[C@@H]2CN1C(=O)[C@H](C1CCCCC1)NC(=O)O[C@@H]1C[C@H]1CCCCCc1c(nc3ccccc3c1OCCCN1CCN(C)CC1)O2)C(=O)NS(=O)(=O)C1(C)CC1"
  measured-quantity: "Ki"
  reported: 15
- compound: "C=C[C@@H]1CC1(NC(=O)[C@@H]1C[C@@H]2CN1C(=O)[C@H](C1CCCCC1)NC(=O)O[C@@H]1C[C@H]1CCCCCc1c(nc3ccccc3c1OCCCN1CCNCC1)O2)C(=O)NS(=O)(=O)C1(C)CC1 (stereo partly shown)"
  measured-quantity: "Ki"
  reported: 16
- compound: "C=C[C@@H]1C[C@]1(NC(=O)[C@@H]1C[C@@H]2CN1C(=O)[C@H](C1CCCCC1)NC(=O)O[C@@H]1C[C@H]1CCCCCc1c(nc3ccccc3c1OCCCN1CCN(C(=O)OC(C)(C)C)CC1)O2)C(=O)NS(=O)(=O)C1(C)CC1"
  measured-quantity: "Ki"
  reported: 37
